experimental.system: Integrin alpha-5/beta-1 (Homo sapiens, UniProt P05556+P08648)
Sequence (P05556 21-798 limits assumed): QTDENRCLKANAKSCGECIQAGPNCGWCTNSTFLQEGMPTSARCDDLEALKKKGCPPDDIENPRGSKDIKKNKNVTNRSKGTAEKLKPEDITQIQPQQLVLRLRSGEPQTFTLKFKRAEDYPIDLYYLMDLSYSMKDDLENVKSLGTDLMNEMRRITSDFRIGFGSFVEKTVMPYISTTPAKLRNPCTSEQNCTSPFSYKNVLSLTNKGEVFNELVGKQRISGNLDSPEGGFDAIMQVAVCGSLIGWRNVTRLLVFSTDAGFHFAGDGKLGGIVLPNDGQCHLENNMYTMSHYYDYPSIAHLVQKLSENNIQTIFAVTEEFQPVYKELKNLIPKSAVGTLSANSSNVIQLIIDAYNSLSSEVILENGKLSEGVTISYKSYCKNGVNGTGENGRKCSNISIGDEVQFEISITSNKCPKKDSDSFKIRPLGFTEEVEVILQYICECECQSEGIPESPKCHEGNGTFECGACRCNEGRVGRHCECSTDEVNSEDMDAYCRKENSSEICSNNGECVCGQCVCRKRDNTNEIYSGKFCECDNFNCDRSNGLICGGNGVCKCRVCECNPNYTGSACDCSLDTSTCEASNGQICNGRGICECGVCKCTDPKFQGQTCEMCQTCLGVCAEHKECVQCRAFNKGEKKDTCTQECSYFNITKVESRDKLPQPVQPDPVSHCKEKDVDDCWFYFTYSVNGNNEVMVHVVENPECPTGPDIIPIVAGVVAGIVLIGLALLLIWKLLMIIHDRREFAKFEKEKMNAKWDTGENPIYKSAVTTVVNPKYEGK
Sequence (P08648 42-894 limits assumed): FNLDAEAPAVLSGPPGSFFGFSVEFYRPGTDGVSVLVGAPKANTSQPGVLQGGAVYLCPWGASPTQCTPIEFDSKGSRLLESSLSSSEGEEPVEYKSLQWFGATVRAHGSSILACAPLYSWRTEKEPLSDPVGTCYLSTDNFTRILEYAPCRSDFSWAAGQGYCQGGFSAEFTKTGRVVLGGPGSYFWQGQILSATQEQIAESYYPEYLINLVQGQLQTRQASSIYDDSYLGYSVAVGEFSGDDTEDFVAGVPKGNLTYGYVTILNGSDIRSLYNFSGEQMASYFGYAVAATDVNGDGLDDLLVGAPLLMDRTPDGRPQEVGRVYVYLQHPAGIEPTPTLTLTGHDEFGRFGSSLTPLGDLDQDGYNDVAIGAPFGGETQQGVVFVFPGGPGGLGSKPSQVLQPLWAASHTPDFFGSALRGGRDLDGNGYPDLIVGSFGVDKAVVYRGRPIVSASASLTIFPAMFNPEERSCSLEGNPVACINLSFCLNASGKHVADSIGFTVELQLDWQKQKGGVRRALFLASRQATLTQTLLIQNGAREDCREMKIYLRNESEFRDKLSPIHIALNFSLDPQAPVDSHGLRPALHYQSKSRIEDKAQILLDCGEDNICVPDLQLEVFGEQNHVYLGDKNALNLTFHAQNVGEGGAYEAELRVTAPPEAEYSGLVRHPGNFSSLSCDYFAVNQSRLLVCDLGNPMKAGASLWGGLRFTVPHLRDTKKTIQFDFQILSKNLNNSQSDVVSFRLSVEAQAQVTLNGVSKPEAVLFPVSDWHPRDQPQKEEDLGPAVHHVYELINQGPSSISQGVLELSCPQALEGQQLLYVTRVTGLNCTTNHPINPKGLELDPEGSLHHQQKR
Sequence (P08648 895-1049 limits assumed): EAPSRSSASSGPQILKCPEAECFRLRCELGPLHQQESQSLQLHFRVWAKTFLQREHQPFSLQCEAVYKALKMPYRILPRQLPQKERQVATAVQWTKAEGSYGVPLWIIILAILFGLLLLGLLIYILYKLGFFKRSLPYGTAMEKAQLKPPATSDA
method.description: Binding affinity to integrin alpha5beta1
Type: protein-complex assay
assay.metric: IC50 (nM)

Take a look at these entries with their results.
O=C(NCc1ccc2c(n1)NCCC2)c1ccc(C[C@H](NC(=O)c2c(Cl)cccc2Cl)C(=O)O)cc1 5
O=C(N[C@@H](Cc1ccc(OCCCCNc2ccccn2)cc1)C(=O)O)c1c(Cl)cccc1Cl 54
O=C(N[C@@H](Cc1ccc(C#CCCNc2ccccn2)cc1)C(=O)O)c1c(Cl)cccc1Cl 69
O=C(N[C@@H](Cc1ccc(OCCc2cccc(NCC3CC3)n2)cc1)C(=O)O)c1c(Cl)cccc1Cl 3

[1] CN1CC(CCCOc2ccc(C[C@H](NC(=O)c3c(Cl)cccc3Cl)C(=O)O)cc2)C1
[2] CNc1cccc(COCc2ccc(C[C@H](NC(=O)c3c(Cl)cccc3Cl)C(=O)O)cc2)n1
[3] O=C(N[C@@H](Cc1ccc(OCCc2ccc3c(n2)NCCO3)cc1)C(=O)O)c1c(Cl)cccc1Cl
# desc sort on IC50 across 3 molecules Output spec: a listing of the labels in the requested order.
1, 2, 3
(1: 360 nM, 2: 220 nM, 3: 1 nM)

====

The entries below are paired with their reported IC50.
experimental.system: Integrin alpha-5/beta-1 (Homo sapiens, UniProt P05556+P08648)
method.description: Antagonist activity at integrin alpha5beta1 in human K562 cells assessed as inhibition of cell adhesion
Format: functional, cell-based

Answered examples (2):
O=C(N[C@@H](Cc1ccc(CCCc2ccc3c(n2)NCCC3)cc1)C(=O)O)c1c(Cl)cccc1Cl < 8 nM
O=C(N[C@@H](Cc1ccc(OCCc2cccc(NCC3CC3)n2)cc1)C(=O)O)c1c(Cl)cccc1Cl < 41 nM

Moving on to the next compound.
# input compound: `O=C(N[C@@H](Cc1ccc(OCCc2ccc3c(n2)NCCC3)cc1)C(=O)O)c1c(Cl)cccc1Cl` ; wanted: its IC50
< 3 nM

====

experimental.system: Integrin alpha-5/beta-1 (Homo sapiens, UniProt P05556+P08648)
method.description: Binding affinity to integrin alpha5beta1
Assay type: protein-complex assay
pIC50: −log10 of the molar value.
assay.metric: pIC50

Consider the reported pIC50 for these compounds:
O=C(N[C@@H](Cc1ccc(OCCc2cccc(NC3CCCC3)n2)cc1)C(=O)O)c1c(Cl)cccc1Cl 7.08
O=C(N[C@@H](Cc1ccc(OCCNc2nc3ccccc3s2)cc1)C(=O)O)c1c(Cl)cccc1Cl 6.01
NC(=O)NCCCOc1ccc(C[C@H](NC(=O)c2c(Cl)cccc2Cl)C(=O)O)cc1 6.82

[a] CN(C)c1cccc(CCOc2ccc(C[C@H](NC(=O)c3c(Cl)cccc3Cl)C(=O)O)cc2)n1
[b] O=C(N[C@@H](Cc1ccc(CCCCNc2ccccn2)cc1)C(=O)O)c1c(Cl)cccc1Cl
For the pair a and b , which member has the lower pIC50 number? Your answer should be the label of the entry you select.
a
(a: 6.85, b: 7.62)

====

method.description: Dissociation constant, pKa of the compound
Assay type: physicochemical
assay.metric: pKa

O=C(NCc1ccc2c(n1)NCCC2)c1ccc(C[C@H](NC(=O)c2c(Cl)cccc2Cl)C(=O)O)cc1 6.8
O=C(N[C@@H](Cc1ccc(OCCNc2ccccn2)cc1)C(=O)O)c1c(Cl)cccc1Cl 6.7
O=C(N[C@@H](Cc1ccc(OCCCNc2ccccn2)cc1)C(=O)O)c1c(Cl)cccc1Cl 7.1
O=C(N[C@@H](Cc1ccc(CCCCNc2ccccn2)cc1)C(=O)O)c1c(Cl)cccc1Cl 7.2
CNc1cccc(COCc2ccc(C[C@H](NC(=O)c3c(Cl)cccc3Cl)C(=O)O)cc2)n1 6.4
O=C(N[C@@H](Cc1ccc(C#CCCNc2ccccn2)cc1)C(=O)O)c1c(Cl)cccc1Cl 6.7
